- System: HL-60(TB) leukemia
- ASSAY OVERVIEW: NCI tumour cell line growth inhibition, 48 h
TEST READOUT: TGI

The cases that follow already have their TGI on record.
| COMPOUND | TGI |
| --- | --- |
| O=C(N/N=C\c1c(O)ccc2ccccc12)C1CC1 | > 100 µM |
| NC(CSS(=O)(=O)c1ccccc1)C(=O)O (stereo not given) | > 10 µM |
| O=C1OCC2=C1C(c1cccc(Cl)c1)c1cc3c(cc1N2CCO)OCO3 (stereo not given) | 3.7 µM |

Quick one: TGI for COc1ccc(OC)c(N2C(=O)/C(=C\c3ccccc3)SC2c2cc(OC)c(OC)c(OC)c2)c1 (stereo not given) ?
> 100 µM

Could you do the same for `CCC(=C(C#N)C#N)c1cc(OC)c(OC)c(OC)c1` , please?
44.5 µM

Could you do the same for `O=C(Nc1ccn(CCOC(=O)c2ccccc2)c(=O)n1)c1ccccc1` , please?
> 100 µM

Could you do the same for CC1=CC2CCC1(C)C/C2=C(/C)OC=O (stereo not given) , please?
> 100 µM

Could you do the same for `C[C@@H]1CCC[C@]2(C)O[C@H]2CC[C@@](C)(O)[C@@H]2CC3=C(CO)C(=O)O[C@H]3[C@H]1O2` , please?
> 5 µM

Could you do the same for `O=C(/C=C/c1ccc(OCCSCCCCCCCCCCSCCOc2ccc(/C=C/C(=O)c3ccc(Cl)cc3)cc2)cc1)c1ccc(Cl)cc1` , please?
> 100 µM

Could you do the same for CC1CN1C1=CC(=O)c2c(c(CO)cn2C)C1=O (stereo not given) , please?
75.2 µM

* * *

- Tested on: K-562 leukemia
- ASSAY OVERVIEW: NCI tumour cell line growth inhibition, 48 h
TEST READOUT: TGI

| COMPOUND | TGI |
| --- | --- |
| COc1ccc(-c2cc(-c3ccc(Nc4ccnc5cc(C(F)(F)F)ccc45)cc3)nc(N)c2C#N)cc1 | > 100 µM |
| O=C1OCC2=C1C(c1cccc(Cl)c1)c1cc3c(cc1N2CCO)OCO3 (stereo not given) | > 100 µM |
| CCOC(=O)c1cc2c(c3ccsc13)C1(C)CCC3c4ccc(OC)cc4CCC3C1C2 (stereo not given) | > 100 µM |
| CCOC(=O)N/N=C(\Cc1ccccc1)OCC | > 100 µM |
| O=[N+]([O-])/C(C(Cl)=C(Cl)Cl)=C(\Nc1cccc2ccccc12)Sc1ccccc1 | > 100 µM |

Quick one: TGI for `CCCCCCc1nn2c(-c3ccncc3)nnc2s1` ?
> 10 µM

Could you do the same for N#CC1(C#N)C2=C(CCCC2)NC(c2ccc(Br)cc2)C1(C#N)C#N (stereo not given) , please?
12 µM

Could you do the same for N#Cc1c(-c2ccccc2)c(C#N)c(=S)n(C2OC(CO)C(O)C(O)C2O)c1N (stereo not given) , please?
> 100 µM

Could you do the same for `c1cc(-c2ccsc2-c2ccsc2)cs1` , please?
> 100 µM

Could you do the same for `COC(=O)c1cc2c3c(c1)Oc1cc(C(=O)OC)cc4c1C3c1c(cc(C(=O)OC)cc1O4)O2` , please?
> 100 µM

* * *

A collection of compounds and their measured TGI
- Tested on: PC-3 prostate
- ASSAY OVERVIEW: NCI tumour cell line growth inhibition, 48 h

The cases that follow already have their TGI on record.
| COMPOUND | TEST TARGET | TEST READOUT | RESULT |
| --- | --- | --- | --- |
| COC1CC(OC2C(C)OC(OC3C(C)OC(OC4C(C)OC(O[C@H]5CC[C@@]6(C)C(=CC[C@]7(O)[C@@H]6C[C@@H](OC(=O)/C=C/c6ccccc6)[C@@]6(C)[C@]7(O)CC[C@@]6(O)C(C)=O)C5)CC4OC)CC3OC)CC2OC)OC(C)C1O (stereo not given in full) | PC-3 prostate | TGI | > 12.5 µM |
| N#CC1(C#N)C2=C(CCCC2)NC(c2ccc(Br)cc2)C1(C#N)C#N (stereo not given) | PC-3 prostate | TGI | 26.8 µM |
| CCc1n[nH]c(=O)n1NC(=O)CCCC(=O)O | PC-3 prostate | TGI | > 100 µM |
| O=C(O)c1ccccc1CC1Cc2ccccc2C1 | PC-3 prostate | TGI | > 100 µM |

Quick one: TGI for COc1ccc(/C=N/C2=C(C#N)C(c3ccccc3)c3c(ccc4ccccc34)O2)cc1 (stereo not given) ?
18.8 µM

Could you do the same for O=C(O)C(Cc1c[nH]c2ccccc12)C(=O)NO (stereo not given) , please?
> 100 µM

Could you do the same for `CCOC(=O)c1cc(NC(=O)N(CCC#N)CCN(C(=O)N[C@@H](Cc2ccccc2)C(=O)N[C@@H](CC(C)C)C(=O)NC)c2ccccc2)ccc1OC` , please?
> 100 µM

Could you do the same for `Cc1ccc(S(=O)(=O)NC(=O)Nc2ccc(C(=O)O)c(O)c2)cc1` , please?
> 100 µM
